# Tested on: FMOC09 (patient-derived high-grade serous ovarian cancer cells)
# Assay Info: drug sensitivity score (DSS3, normalised partial AUC of % inhibition dose-response) (DSS (score)); higher = more sensitive (stronger inhibition of viability); extreme values may be limits of the assay
# Setup Conditions: 72 h; library: FO5A; assay format: 2D, 384-well, CellTiter-Glo
Experimental Endpoint: drug sensitivity score

Molecule: OC[C@H]1O[C@@H](n2cnc3c2N=CNC[C@H]3O)C[C@@H]1O [Pentostatin]
Reported Result: 0

Molecule: CN1CCN(c2cc(C(=O)Nc3ccc4c(c3)-c3c(c(C(N)=O)nn3-c3ccc(F)cc3)CC4)c(Cl)cn2)CC1 [PHA 408]
Reported Result: 4.8

Molecule: O=C(Nc1ccc(OC(F)(F)Cl)cc1)c1cnc(N2CC[C@@H](O)C2)c(-c2cc[nH]n2)c1 [Asciminib]
Reported Result: 0

Molecule: COc1nc(N)nc2c1ncn2[C@@H]1O[C@H](CO)[C@@H](O)[C@@H]1O [Nelarabine]
Reported Result: 0

Molecule: Cc1cc(C)c(CNC(=O)c2cc(-c3ccc(CN4CCOCC4)cc3)cc3c2cnn3C2CCCC2)c(=O)[nH]1 [EPZ-5687]
Reported Result: 0

Molecule: COc1cc(CCc2cc(NC(=O)c3ccc(N4CC(C)NC(C)C4)cc3)n[nH]2)cc(OC)c1 (stereo not drawn) [AZD4547]
Reported Result: 0

Molecule: NC(=O)Nc1cc(-c2cccc(F)c2)sc1C(=O)N[C@H]1CCCNC1 [AZD7762]
Reported Result: 6.3

Molecule: Nc1ncnc2c1nc(N)n2[C@@H]1O[C@H](CO)[C@@H](O)[C@H]1O [8-amino-adenosine]
Reported Result: 20.2

====

# maps each entry to its drug sensitivity score
# System: FMOC02_2 (patient-derived low-grade serous ovarian cancer cells)
# Assay Info: drug sensitivity score (DSS3, normalised partial AUC of % inhibition dose-response) (DSS (score)); higher = more sensitive (stronger inhibition of viability); extreme values may be limits of the assay
# Setup Conditions: 72 h; library: FO5A; assay format: 2D, 384-well, CellTiter-Glo

Molecule: O=C(c1ccc(OCCN2CCCCC2)cc1)c1c(-c2ccc(O)cc2)sc2cc(O)ccc12 [Raloxifene]
drug sensitivity score: 5.8
--
Molecule: CCn1c(C(=O)N(C2CC2)C2CC2)cc2c3c(ncn3C)c(Nc3cc(C)n(C)n3)nc21
drug sensitivity score: 1.4
--
Molecule: COc1ccccc1S(=O)(=O)Nc1ccc2c(c1)CN(C)C(=O)N2 [PFI-1]
drug sensitivity score: 5.3
--
Molecule: CC(=O)Nc1cccc(-n2c(=O)n(C3CC3)c(=O)c3c(Nc4ccc(I)cc4F)n(C)c(=O)c(C)c32)c1 [Trametinib]
drug sensitivity score: 15.1
--
Molecule: CCS(=O)(=O)c1cccc(-c2cc(C(=O)NC3CCN(C)CC3)c(C)c3[nH]c4ncc(C)cc4c23)c1 [TAK-901]
drug sensitivity score: 1
--
Molecule: O=C(O)C1(C(=O)O)CCC1.[NH2-].[NH2-].[Pt+2] [Carboplatin]
drug sensitivity score: 4.9
--
Molecule: CCCOc1ccn2c(C(C)=O)cc(-c3ccccc3S(C)(=O)=O)c2c1 [GSK2801]
drug sensitivity score: 0.1
--
Molecule: Cc1cccc(-c2[nH]c(CNc3ccccc3F)nc2-c2ccc3ncnn3c2)n1 [TEW-7197]
drug sensitivity score: 1.8

====

# System: FMOC04 (patient-derived high-grade serous ovarian cancer cells)
# Assay Info: drug sensitivity score (DSS3, normalised partial AUC of % inhibition dose-response) (DSS (score)); higher = more sensitive (stronger inhibition of viability); extreme values may be limits of the assay
# Setup Conditions: 72 h; library: FO5A; assay format: 2D, 384-well, CellTiter-Glo
Below, each entry is listed with its recorded drug sensitivity score.

Compound: N[C@@H]1CCCN(c2c(/C=C3\SC(=O)NC3=O)cccc2-c2ccccc2)C1
drug sensitivity score: 0
--
Compound: CC(C)C(=O)Nc1ccc([N+](=O)[O-])c(C(F)(F)F)c1 [Flutamide]
drug sensitivity score: 0.05
--
Compound: O=c1[nH]c(C2CCCN2)nc2c1oc1ccc(Cl)cc12 (configuration not stated)
drug sensitivity score: 0
--
Compound: Nc1nc(N)c2nc(-c3cccc(O)c3)c(-c3cccc(O)c3)nc2n1
drug sensitivity score: 0
--
Compound: C[C@H](Nc1ncnc2[nH]cnc12)c1cc2ccc(F)cc2nc1-c1ccccn1
drug sensitivity score: 0
--
Compound: COc1cc(OC2CCN(C)CC2)ccc1Nc1ncc2c(n1)n(C1CCCC1)c(=O)n2C
drug sensitivity score: 1.3
--
Compound: CN1CCN(c2ccc3nc(-c4c(N)c5c(F)cccc5[nH]c4=O)[nH]c3c2)CC1
drug sensitivity score: 0
--
Compound: COCCNCc1ccc(-c2cc3nccc(Oc4ccc(NC(=S)NC(=O)Cc5ccc(F)cc5)cc4F)c3s2)nc1
drug sensitivity score: 0
--
Compound: CNC(=O)[C@@H](NC(=O)[C@H](CC(C)C)[C@H](O)C(=O)NO)C(C)(C)C
drug sensitivity score: 0
--
Compound: Cc1c(N)nc([C@H](CC(N)=O)NC[C@H](N)C(N)=O)nc1C(=O)N[C@H](C(=O)N[C@H](C)[C@@H](O)[C@H](C)C(=O)N[C@H](C(=O)NCCc1nc(-c2nc(C(=O)NCCC[S+](C)C)cs2)cs1)[C@@H](C)O)[C@@H](OC1OC(CO)C(O)C(O)C1OC1OC(CO)C(O)C(OC(N)=O)C1O)c1cnc[nH]1 (some centres not stated)
drug sensitivity score: 0
--
Compound: CC(C)N(C[C@H]1O[C@@H](n2cnc3c(N)ncnc32)[C@H](O)[C@@H]1O)[C@H]1C[C@@H](CCc2nc3cc(C(C)(C)C)ccc3[nH]2)C1
drug sensitivity score: 0
--
Compound: CN(C)CCCOc1ccc(-c2ccc3ncc4c(c3c2)n(C2CCOCC2)c(=O)n4C)cn1
drug sensitivity score: 0.8
--
Compound: COc1cc2ncnc(Oc3cccc(NC(=O)Nc4cc(C(C)(C)C(F)(F)F)on4)c3)c2cc1OC
drug sensitivity score: 0
--
Compound: O=C(Nc1ccc(OC(F)(F)Cl)cc1)c1cnc(N2CC[C@@H](O)C2)c(-c2cc[nH]n2)c1
drug sensitivity score: 0
--
Compound: COCC[n+]1c2c(n(Cc3cnccn3)c1C)C(=O)c1ccccc1C2=O [Sepantronium bromide]
drug sensitivity score: 38.1
--
Compound: CC(C)Cn1cnc2c(N)nc3ccccc3c21
drug sensitivity score: 0
--
Compound: Cc1ccc(NC(=O)c2ccc(CN3CCN(C)CC3)cc2)cc1Nc1nccc(-c2cccnc2)n1
drug sensitivity score: 0
--
Compound: O=C(Nc1cc(Cl)cc2c1[nH]c1cnccc12)c1cccnc1
drug sensitivity score: 0
--
Compound: O=C(CCCCCCNC(=O)c1cnc(N(c2ccccc2)c2ccccc2)nc1)NO
drug sensitivity score: 3.2
--
Compound: COc1nc(N)nc2c1ncn2[C@@H]1O[C@H](CO)[C@@H](O)[C@@H]1O
drug sensitivity score: 0
--
Compound: CNS(=O)(=O)Nc1nccc(Cc2c(C)c3ccc(Oc4ncccn4)cc3oc2=O)c1F
drug sensitivity score: 0
--
Compound: CC#CC(=O)N1CCC[C@H]1c1nc(-c2ccc(C(=O)Nc3ccccn3)cc2)c2c(N)nccn12
drug sensitivity score: 0.6
--
Compound: CCN(CC)CCN(Cc1ccc(-c2ccc(C(F)(F)F)cc2)cc1)C(=O)Cn1c(SCc2ccc(F)cc2)nc(=O)c2c1CCC2
drug sensitivity score: 0.25
--
Compound: CCN1CCN(c2ccc(Nc3cc(N(C)C(=O)Nc4c(Cl)c(OC)cc(OC)c4Cl)ncn3)cc2)CC1
drug sensitivity score: 0
--
Compound: CCC1(c2ccc(N)cc2)CCC(=O)NC1=O (configuration not stated) [Aminoglutethimide]
drug sensitivity score: 0
--
Compound: CCN(CC)CCNC(=O)c1c(C)[nH]c(/C=C2\C(=O)Nc3ccc(F)cc32)c1C
drug sensitivity score: 0
--
Compound: CCCC(CCC)C(=O)O
drug sensitivity score: 0
--
Compound: CN1CCc2c(c3ccccc3n2Cc2ccc(C(=O)NO)cc2)C1
drug sensitivity score: 1.4
--
Compound: Cc1cnc(NC(=O)Nc2cc(Br)c(C)cc2OC[C@@H]2CNCCO2)cn1
drug sensitivity score: 1.7
--
Compound: CO[C@@]12[C@H](COC(N)=O)C3=C(C(=O)C(C)=C(N)C3=O)N1C[C@@H]1N[C@@H]12
drug sensitivity score: 0
--
Compound: Cc1cccc(CC(=O)N2CCc3c2ccc(-c2cn(C)c4ncnc(N)c24)c3F)n1
drug sensitivity score: 0
--
Compound: CNC(=O)c1ccc(C)c(-n2c(C)cc(OCc3ccc(F)cc3F)c(Br)c2=O)c1
drug sensitivity score: 0

====

# Tested on: FMOC14 (patient-derived high-grade serous ovarian cancer cells)
# Assay Info: drug sensitivity score (DSS3, normalised partial AUC of % inhibition dose-response) (DSS (score)); higher = more sensitive (stronger inhibition of viability); extreme values may be limits of the assay
# Setup Conditions: 72 h; library: FO5A; assay format: 2D, 384-well, CellTiter-Glo
Items are presented alongside their recorded drug sensitivity score.
Experimental Endpoint: drug sensitivity score

Compound: CC[C@@H](C(=O)[C@@H](C)[C@@H](O)[C@H](C)[C@@H]1O[C@@H]([C@@H](CC)C(=O)O)CC[C@@H]1C)[C@H]1O[C@]2(C=C[C@@H](O)[C@]3(CC[C@@](C)([C@H]4CC[C@](O)(CC)[C@H](C)O4)O3)O2)[C@H](C)C[C@@H]1C [Salinomycin]
Experimental Endpoint: drug sensitivity score
Reported Result: 23.3
--
Compound: CO[C@H]1C[C@@H]2CC[C@@H](C)[C@@](O)(O2)C(=O)C(=O)N2CCCC[C@H]2C(=O)O[C@H]([C@H](C)C[C@@H]2CC[C@@H](OC(=O)C(C)(CO)CO)[C@H](OC)C2)CC(=O)[C@H](C)/C=C(\C)[C@@H](O)[C@@H](OC)C(=O)[C@H](C)C[C@H](C)/C=C/C=C/C=C/1C [Temsirolimus]
Experimental Endpoint: drug sensitivity score
Reported Result: 8.9
--
Compound: Cc1cc(Nc2cc(CN3CCOCC3)c3nc(C)c(Cc4ccc(Cl)cc4F)n3n2)n[nH]1 [Gandotinib]
Experimental Endpoint: drug sensitivity score
Reported Result: 6.1
--
Compound: CC(C)N(CCCNC(=O)Nc1ccc(C(C)(C)C)cc1)C[C@H]1O[C@@H](n2cc(Br)c3c(N)ncnc32)[C@H](O)[C@@H]1O [SGC0946]
Experimental Endpoint: drug sensitivity score
Reported Result: 0
--
Compound: COc1cc2nccc(Oc3ccc(NC(=O)C4(C(=O)Nc5ccc(F)cc5)CC4)cc3)c2cc1OC [Cabozantinib]
Experimental Endpoint: drug sensitivity score
Reported Result: 0
--
Compound: CN[C@@H]1C[C@H]2O[C@@](C)([C@@H]1OC)n1c3ccccc3c3c4c(c5c6ccccc6n2c5c31)C(=O)N[C@H]4O [UCN-01]
Experimental Endpoint: drug sensitivity score
Reported Result: 19.8
--
Compound: C[C@@H]1CN(CC(=O)Nc2ccc3c(c2)Cc2cccc(-c4cc(=O)cc(N5CCOCC5)o4)c2S3)C[C@H](C)O1
Experimental Endpoint: drug sensitivity score
Reported Result: 0.3
--
Compound: Cc1c(F)cc(C(=O)NC2CC2)cc1-c1ccc(C(=O)NCC(C)(C)C)cn1 [Losmapimod]
Experimental Endpoint: drug sensitivity score
Reported Result: 0
--
Compound: COCCOc1cnc2ccn([C@H](C)c3nnc4c(F)cc(-c5cnn(C)c5)cn34)c(=O)c2c1 [AMG-337]
Experimental Endpoint: drug sensitivity score
Reported Result: 0
--
Compound: NS(=O)(=O)NCCNc1nonc1/C(=N/O)Nc1ccc(F)c(Br)c1 [Epacadostat]
Experimental Endpoint: drug sensitivity score
Reported Result: 0
--
Compound: CC(C)C[C@H](NC(=O)CNC(=O)c1cc(Cl)ccc1Cl)B(O)O [Ixazomib]
Experimental Endpoint: drug sensitivity score
Reported Result: 15.3
--
Compound: CNC(=O)c1ccc(N2C(=S)N(c3cnc(C#N)c(C(F)(F)F)c3)C(=O)C23CCC3)cc1F [Apalutamide]
Experimental Endpoint: drug sensitivity score
Reported Result: 0
--
Compound: COc1cc(OC)c(/C=C/S(=O)(=O)Cc2ccc(OC)c(NCC(=O)O)c2)c(OC)c1 [Rigosertib]
Experimental Endpoint: drug sensitivity score
Reported Result: 0.1

Data credit: the supplement of paper PMC9938120
